Can you tell me TGI for the items I'm about to list?
Test system: HOP-92 NSCLC
TEST_DETAILS: NCI tumour cell line growth inhibition, 48 h

MOLECULE	TARGET_DESC	RESULT_TYPE	VALUE_MEASURED
CCCCCCCCCCCCCS(=O)(=O)NCC(N)=O	HOP-92 NSCLC	TGI	> 100 µM
CC12CCc3ccccc3C1=NNC(=O)C2 (stereo unspecified)	HOP-92 NSCLC	TGI	> 100 µM
CCS(=O)(=O)c1ccc(OC)c(Nc2ncc(-c3cccc(F)c3)o2)c1	HOP-92 NSCLC	TGI	> 25 µM

Can you give me TGI for all of these, one by one?
1. COC1/C(=C\C(C)=O)c2ccccc2N1C(C)=O (stereo unspecified)
2. O=C1CC(c2ccccc2)n2c(nc3ccccc32)N1 (stereo unspecified)
3. COc1ccc(C(=O)C(C(=O)C(=O)NCCCNC(=O)C(=O)C(C(=O)c2ccc(OC)cc2)c2ccc(OC)cc2)c2ccc(OC)cc2)cc1 (stereo unspecified)

Response:
1: > 100 µM; 2: > 100 µM; 3: > 100 µM

----------
Can you tell me TGI for the items I'm about to list?
Test system: BT-549 breast
TEST_DETAILS: NCI tumour cell line growth inhibition, 48 h

Please review the entries below; each comes with its answer.
MOLECULE	TGI
O=C1NC(=NCCc2ccc(Br)cc2)S/C1=C\c1ccc2ncccc2c1	> 25 µM
COc1ccc(-c2nnc3n(C)c4ccccc4n3c2=O)cc1	> 100 µM
O=C1Cc2cc(CCN3CCNCC3)c(Cl)cc2N1	> 100 µM
NC1=Nc2ccccc2Sc2cccc(F)c21	> 100 µM
Oc1[nH]c2ccccc2c1C=Nc1ccc(-n2cncn2)cc1	> 25 µM
CSc1nc2c(c(=O)n1C)C(c1ccccc1)C1=C(N2)/C(=C/c2ccccc2)CCC1 (configuration not stated)	> 100 µM

Proceed to the following item.
Prompt: Which TGI value is on record for O=C(NC1C/C(=N/O)c2c(Br)sc(Br)c21)C(F)(F)F (configuration not stated) ?
Response: > 100 µM

----------
Can you tell me TGI for the items I'm about to list?
Test system: MDA-MB-435
TEST_DETAILS: NCI tumour cell line growth inhibition, 48 h

MOLECULE	TARGET_DESC	TGI
CNC(=O)CNC(=O)N(C[C@@H]1CCCN1C(=O)[C@H](CC(C)C)NC(=O)OC(C)(C)C)C(C)C	MDA-MB-435	> 100 µM
COC(=O)c1ccccc1C1CN=NC12Cc1ccc3c(c1C2=O)CCC3 (stereo not given)	MDA-MB-435	> 100 µM
CCOC(=O)N1CCC2(CC1)C[C@@](C(C)=O)(c1ccccc1)C(C)O2 (stereo not given in full)	MDA-MB-435	> 100 µM
CC(NNC(=O)c1ccncc1)c1cccc(C(F)(F)F)c1 (stereo not given)	MDA-MB-435	> 100 µM

Prompt: Which TGI value is on record for C/C(=N\NC(N)=S)c1nc2ncccc2[nH]1 ?
Response: > 100 µM

----------
Can you tell me TGI for the items I'm about to list?
Tested on: UO-31 renal
TEST_DETAILS: NCI tumour cell line growth inhibition, 48 h

Please review the entries below; each comes with its answer.
COMPOUND	RESULT_TYPE	VALUE_MEASURED
COc1ccccc1C(=O)OCC1CCCN2CCCCC12 (stereo not drawn)	TGI	> 100 µM
CCOC(=O)c1nc2cc(Cl)ccc2[nH]c1=O	TGI	> 100 µM
N=C(CC(=O)Nc1ccccn1)c1ccccc1	TGI	> 100 µM
CN(C)CCC[N+]1=Nc2cccc3cccc(c23)N1	TGI	> 100 µM

Can you give me TGI for all of these, one by one?
1. NC(=O)/N=C/c1c(O)c2ccccc2oc1=O
2. CN(CCCCCl)P(=O)(OCc1ccc([N+](=O)[O-])o1)OCC1OC(n2cc([N+](=O)[O-])c(=O)[nH]c2=O)CC1O (stereo not drawn)
3. COc1ccc(-c2nnc3n(C)c4ccccc4n3c2=O)cc1
4. COc1ccc2c(c1)-c1c(c3cc(OC)ccc3n(CCN(C)C)c1=O)C2=O
5. CCOCCOCCOCCOCCOCCOCCOCCOCCOCCO (tested in a mixture with another compound)
6. COc1ccc2c(c1)C(=O)c1c-2n(CCCN(C)C)c(=O)c2cc([N+](=O)[O-])ccc12
7. CCOC(=O)C1C(=O)CC(=O)C2CCCCC21 (stereo not drawn)
8. COc1cc(O)c(Cc2ccccc2O)c(O)c1C(=O)CCc1ccccc1

Response:
1: > 100 µM; 2: > 100 µM; 3: > 100 µM; 4: 1.23 µM; 5: 18.7 µM; 6: 0.0294 µM; 7: > 100 µM; 8: 23.4 µM
